Cited source for all entries: PubChem BioAssay

experiment: anti-His antibody binders, primary screen, artefact control for SMM control protein annotation, biochemical, small-molecule microarray, 635 nm fluorescence (AID 1128); settings: anti-His Alexa647 antibody binding, higher = more signal;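 note: score merges feature fluorescence with signal-to-noise for each printed compound spot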
Using composite z-score as the sorting value, the categories are bucket A = under 0.04, bucket B = from 0.04 up to 0.4, bucket C = 0.4 and over

Some solved cases for reference:
COc1cccc([C@H]2Oc3ccc(OC)cc3C(=NO[C@H](C)c3cn([C@H](CO)Cc4ccccc4)nn3)[C@@H]2O)c1: bucket C
CC1O[C@H]2C3=C(C(=O)[C@@H]4O[C@@H]4[C@H]3O)[C@@H]1C1[C@@H](C)OC=C3[C@H](O)C4O[C@@H]4C(=NOCc4ccccc4)[C@]312 (stereo partly specified): bucket B
CCOC(=O)[C@H](CC(C)C)NC(=O)CCC1CC(OC(=O)NCc2ccc3c(c2)OCO3)CC2(CCCC(COC(=O)NCC(c3ccccc3)c3ccccc3)O2)O1 (stereo partly specified): bucket C
CON=CC[C@@H]1C=C[C@H](OC(C)=O)[C@@H](COC(C)=O)O1: bucket A
CC(C)=NOC[C@@H](C)[C@H](OCc1ccccc1)C(C)C: bucket B

# bin lookup: classify CC=CC1=C(CO)C(=O)[C@@H]2O[C@@H]2C1=O by its composite z-score
bucket B

Dear colleague, I would appreciate it if you could identify the bin for COC(=O)CC=C[C@H](C)[C@@H](OCc1cccc(Br)c1)[C@@H](C)[C@H](OC)C1CCCCC1 and reply at your convenience.
bucket B

Classify this compound: CO[C@@H]1COC(=O)CC=C[C@@H](C)[C@@H]2C=C[C@H](O)[C@@H](COC(=O)CC=C[C@H]1C)O2
bucket A

* * *

experiment: CREB reporter modulators without forskolin, primary screen, cell-based, PC12, CRE-LacZ reporter, unstimulated (AID 1145); details: no forskolin, luminescence, 4.5 h, higher = more signal, called active from +8 up or from −8 down
Measured z-score determines class: low bracket (below -0.4), middle bracket (-0.4 to below 0.7), high bracket (0.7 or more)

CO[C@@H]1COC(=O)[C@H](CCSC)NC(=O)CC=C[C@@H](C)COC(=O)[C@H](C)NC(=O)CC=C[C@H]1C: high bracket
C[C@H](ON=C1[C@H]2CCn3c(=O)n(-c4ccccc4)c(=O)n3[C@H]2[C@H](O)[C@@H]2O[C@H]12)c1cn([C@H](CO)Cc2ccccc2)nn1: middle bracket
CCCCC#C[C@@H]1C=C[C@H](OC(C)=O)[C@@H](COC(C)=O)O1: low bracket

The entry to classify is O=C1CCCC=C1C(O)CCOC(c1ccccc1)(c1ccccc1)c1ccccc1 (stereo unspecified) ; which class holds it?
middle bracket

Classify this molecule: C=C(C)C(=O)OCC1CN2[C@@H](CC[C@@H](C)[C@@H]2c2ccc(Br)cc2)C(=O)O1 (stereo partly specified)
high bracket

# bin lookup: classify CO[C@H]1COC(=O)[C@H](C)NC(=O)[C@@H](C)COC(=O)[C@H]2CCCN2C(=O)CC=C[C@H]1C by its z-score
low bracket

Category of C[C@@H](c1ccccc1)N1C(=O)[C@H]2[C@H]3[C@H](O)[C@H](O)CC(=NO[C@@H]4O[C@H](CO)[C@@H](O)[C@H](O)[C@H]4O)[C@@H]3CC[C@H]2C1=O :
low bracket

Bin this entry: CCOC(=O)[C@H](Cc1ccccc1)NC(=O)CCC1CC(OC(=O)NCc2cccc3ccccc23)CC2(CCCC(COC(=O)NCCC(C)C)O2)O1 (stereo partly specified)
low bracket
